- TESTED SYSTEM: 5-HT3 receptor (Rattus norvegicus, UniProt P35563)
- Construct: crude synapse membrane sample was prepared from rat cerebral cortex; from tissue; host or cells: rat cerebral cortex, crude synaptic membranes
- Sequence (P35563 24-483): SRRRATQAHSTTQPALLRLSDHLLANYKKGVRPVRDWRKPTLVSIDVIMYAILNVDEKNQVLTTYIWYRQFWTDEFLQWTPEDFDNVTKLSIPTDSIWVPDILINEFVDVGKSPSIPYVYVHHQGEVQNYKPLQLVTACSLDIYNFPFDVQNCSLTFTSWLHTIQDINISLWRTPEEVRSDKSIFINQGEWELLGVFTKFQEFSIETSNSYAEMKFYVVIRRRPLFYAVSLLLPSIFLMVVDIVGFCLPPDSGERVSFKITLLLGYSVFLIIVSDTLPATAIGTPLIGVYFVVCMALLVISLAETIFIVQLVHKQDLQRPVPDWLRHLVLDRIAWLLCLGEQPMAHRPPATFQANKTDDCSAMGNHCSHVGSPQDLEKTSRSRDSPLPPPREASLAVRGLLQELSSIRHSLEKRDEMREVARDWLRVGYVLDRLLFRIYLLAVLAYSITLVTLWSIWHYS
- MEASUREMENT DESCRIPTION: 5-HT3 receptor binding test ([3H]Granisetron, crude synapse membrane from cerebral cortex)
- CONDITION: values marked * are IC50; [3H]Granisetron 1.0 nM, rat cerebral cortex membranes, 25°C, 30 min; read-out: Affinity for receptor 5-HT3 (∗ shows IC50)
Counter-ions that a name gives are not always drawn.
RESULT TYPE: IC50

>  <COMPOUND>
COc1cc(N)c(Cl)cc1C(=O)NCC1CCN(CCCCCCC(=O)c2ccccc2)CC1

>  <TESTED SYSTEM>
5-HT3 receptor (Rattus norvegicus, UniProt P35563)

>  <IC50>
> 1000 nM

$$$$
>  <COMPOUND>
COc1cc(N)c(Cl)cc1C(=O)NCC1CCN(CCCCCC(=O)c2cccc3ccccc23)CC1 [Example 81, hydrochloride]

>  <TESTED SYSTEM>
5-HT3 receptor (Rattus norvegicus, UniProt P35563)

>  <IC50>
> 1000 nM

$$$$
>  <COMPOUND>
CCCN(CCCCCN1CCC(CNC(=O)c2cc(Cl)c(N)cc2OC)CC1)Cc1ccccc1

>  <TESTED SYSTEM>
5-HT3 receptor (Rattus norvegicus, UniProt P35563)

>  <IC50>
> 1000 nM

$$$$
>  <COMPOUND>
CCN(CCCCCN1CCC(CNC(=O)c2cc(Cl)c(N)cc2OC)CC1)Cc1ccc(F)cc1

>  <TESTED SYSTEM>
5-HT3 receptor (Rattus norvegicus, UniProt P35563)

>  <IC50>
> 1000 nM

$$$$
>  <COMPOUND>
COc1ccc(C(=O)CCCCCN2CCC(CNC(=O)c3cc(Cl)c(N)cc3OC)CC2)cc1Cl

>  <TESTED SYSTEM>
5-HT3 receptor (Rattus norvegicus, UniProt P35563)

>  <IC50>
> 1000 nM

$$$$
>  <COMPOUND>
COc1cc(N)c(Cl)cc1C(=O)NCC1CCN(CCCCCNCC2CCCCC2)CC1

>  <TESTED SYSTEM>
5-HT3 receptor (Rattus norvegicus, UniProt P35563)

>  <IC50>
> 1000 nM

$$$$

Continue with the next compound.
query: // returns reported IC50 for input "COc1cc(N)c(Cl)cc1C(=O)NCC1CCN(CCCCCC(=O)c2cn(C)c3ccccc23)CC1"
result: > 1000 nM
